experiment description: NCI Yeast Anticancer Drug Screen. Data for the mlh1 rad18 strain (AID 175)
test parameters: S. cerevisiae mlh1 rad18 strain growth inhibition; at 5.0 µM (retest, dose inferred, filed as 0.5); active compounds read high
The panel holds about 79,000 compounds, 15% with a hit somewhere; the sample as a whole holds those more often.
// values below are reported growth inhibition
Report the figure in % without appending any unit label.

Sample records with growth inhibition:
O=C(Nc1cc(Cl)c(Cl)cc1Cl)C(=O)C(C(=O)c1ccc2ccccc2c1)C1OC(=O)c2ccccc21 (stereo not given): -14
CC(CC(=O)c1ccc2sc3ccccc3c2c1)C(=O)O (stereo not given): 15
CCN(CC)C(=S)Nc1ccc(Cl)cc1: -122
Cc1ccccc1Oc1ccccc1N: -15

Which growth inhibition value belongs to O=C(Nc1cccc(Cl)c1)Oc1c(Br)cc(Br)cc1Br ?
24

Reference source for all entries: PubChem BioAssay (NCI)
